List of growth values.
Test system: UACC-62 melanoma
ASSAY_OVERVIEW: NCI-60 one-dose screen, 48 h (100 = growth as untreated, 0 = no growth, -100 = all killed)
CONDITION: 10 µM unless noted
This is part of a sample that, as a whole, favours compounds with a hit. Of some 83,000 tested, about 20% had one in any assay.

[
  {
    "COMPOUND": "COc1ccc2nc(NC(=O)c3cc(-c4ccc(F)cc4)n4nc(-c5ccccc5)cc4n3)sc2c1",
    "growth / %": 67.9
  },
  {
    "COMPOUND": "Cc1cc2c(cc1[N+](=O)[O-])NC(CNC(C)C)CC2 (centres undefined)",
    "growth / %": 98.7
  },
  {
    "COMPOUND": "O=C(NCCc1ccccc1)C1CCC(=O)N1Cc1ccc(Br)cc1 (centres undefined)",
    "growth / %": 95.4
  },
  {
    "COMPOUND": "COc1cc(/C=C2\\COc3ccc(O)cc3C2=O)cc(OC)c1",
    "growth / %": 62.6
  },
  {
    "COMPOUND": "O=[N+]([O-])c1ccc(Oc2cccc(C(F)(F)F)c2)c([N+](=O)[O-])c1",
    "growth / %": 34.1
  },
  {
    "COMPOUND": "CCOc1nc(-c2ccccc2)cc2c(O)c(C(=O)n3nc(C)cc3C)[nH]c(=O)c12",
    "growth / %": 110
  },
  {
    "COMPOUND": "C=C(C[C@@](O)(C(=O)Oc1ccccc1)C(=O)C1CCCCC1)c1ccccc1",
    "growth / %": 90.3
  },
  {
    "COMPOUND": "COc1cc2c(cc1OCCCCCn1c(-c3ccc(OCc4ccccc4)cc3)nc3cc(N4CCOCC4)ccc31)N=C[C@@H]1CCCN1C2=O",
    "growth / %": -76.5
  },
  {
    "COMPOUND": "COc1ccc(C2CC(c3cccc(Nc4ccnc5cc(Cl)ccc45)c3)=NN2C=O)cc1 (centres undefined)",
    "growth / %": 36
  }
]
